meta.source: ChEMBL document CHEMBL3603827

Biological target: UniProtKB P41594
Sequence (P41594 whole entry): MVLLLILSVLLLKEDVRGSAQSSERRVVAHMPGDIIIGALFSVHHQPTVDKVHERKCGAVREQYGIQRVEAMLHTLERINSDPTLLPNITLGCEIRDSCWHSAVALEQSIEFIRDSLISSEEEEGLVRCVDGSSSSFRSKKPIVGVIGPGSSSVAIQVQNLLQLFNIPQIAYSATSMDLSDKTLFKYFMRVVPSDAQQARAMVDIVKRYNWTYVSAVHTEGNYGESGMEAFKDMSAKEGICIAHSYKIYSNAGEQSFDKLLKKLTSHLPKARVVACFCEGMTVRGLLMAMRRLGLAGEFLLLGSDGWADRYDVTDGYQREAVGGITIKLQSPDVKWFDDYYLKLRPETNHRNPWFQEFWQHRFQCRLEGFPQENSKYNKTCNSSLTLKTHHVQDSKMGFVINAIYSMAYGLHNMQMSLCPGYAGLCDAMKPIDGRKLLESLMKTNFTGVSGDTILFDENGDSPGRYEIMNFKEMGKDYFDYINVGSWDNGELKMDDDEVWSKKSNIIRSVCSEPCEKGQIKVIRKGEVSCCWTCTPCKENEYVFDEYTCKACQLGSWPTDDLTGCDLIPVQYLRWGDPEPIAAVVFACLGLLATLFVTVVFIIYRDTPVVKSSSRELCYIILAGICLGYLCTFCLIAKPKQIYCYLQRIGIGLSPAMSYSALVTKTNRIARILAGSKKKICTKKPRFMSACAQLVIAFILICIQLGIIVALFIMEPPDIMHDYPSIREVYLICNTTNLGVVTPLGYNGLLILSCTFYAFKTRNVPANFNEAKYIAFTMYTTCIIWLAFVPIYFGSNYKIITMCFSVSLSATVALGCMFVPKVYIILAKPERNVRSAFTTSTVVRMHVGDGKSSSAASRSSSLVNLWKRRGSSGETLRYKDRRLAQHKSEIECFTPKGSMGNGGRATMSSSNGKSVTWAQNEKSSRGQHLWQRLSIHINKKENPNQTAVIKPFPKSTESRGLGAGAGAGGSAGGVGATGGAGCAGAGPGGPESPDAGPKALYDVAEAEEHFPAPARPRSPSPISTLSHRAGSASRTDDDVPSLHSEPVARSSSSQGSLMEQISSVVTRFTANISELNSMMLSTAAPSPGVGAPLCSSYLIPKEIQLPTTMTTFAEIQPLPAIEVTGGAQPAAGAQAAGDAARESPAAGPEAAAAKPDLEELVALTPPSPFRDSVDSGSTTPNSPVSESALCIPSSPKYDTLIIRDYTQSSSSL
Assay: Positive allosteric modulation of human mGlu5 receptor expressed in HEK293 cells by calcium mobilization assay
Assay type: functional, cell-based
Settings: read-out: EC50
readout.name: EC50

These solved cases illustrate the format of a correct answer.
INSERT INTO measurements (compound, result) VALUES
  ('O=C(c1ccc(F)cc1)N1CCc2nc(COc3cccnc3)oc2C1', '> 10000 nM'),
  ('CC1c2oc(COc3ccccc3)nc2CCN1C(=O)c1ccc(F)cc1 (configuration not stated)', '750 nM'),
  ('O=C(c1ccc(F)cc1)N1CCc2nc(COc3ccncc3)oc2C1', '1700 nM'),
  ('O=C(c1cc2ccccc2[nH]1)N1CCc2nc(COc3ccccc3)oc2C1', '> 10000 nM'),
  ('O=C(c1ccc(F)cc1)N1CCc2nc(COc3ccccn3)oc2C1', '2460 nM'),
  ('CC1(C)c2oc(COc3ccccc3)nc2CCN1C(=O)c1ccc(F)cc1', '510 nM');

Continue with the compound presented below.
Lab note: need EC50 for `O=C(c1n[nH]c2ncccc12)N1CCc2nc(COc3ccccc3)oc2C1` on UniProtKB P41594, anyone have it?
546 nM
